Listing: growth of selected molecules
Test system: SK-MEL-2 melanoma
run-description: NCI-60 one-dose screen, 48 h (100 = growth as untreated, 0 = no growth, -100 = all killed)
reported-conditions: 10 µM unless noted
About 83,000 compounds went through this panel and 20% of them were active in at least one assay; those are over-represented in the sample as a whole.
Could you give me the number in %? Just the number is fine.

In the examples that follow, each entry is paired with its recorded growth.
molecule | units-text | growth
O=C(Nc1cccc(C(F)(F)F)c1)Nc1cccc(C(F)(F)F)c1 | % | -28.5
COc1ccc(C(=O)/C=C/c2c(C(F)(F)F)nc3sccn23)cc1OC | % | 80.4
CCCCn1c(=O)c2c(nc(NCCc3ccc(O)c(O)c3)n2CCC)n(CCCC)c1=O | % | 72.7

Looking up CCC1(C2CCCC2)NC(=O)NC1=O (configuration not stated) , I see its growth listed as 102

Looking up C=C1C(=O)O[C@H]2[C@H]1CC/C(COC(=O)C(=O)c1cn(C)c3ccc(OC)cc13)=C\CC[C@@]1(C)O[C@@H]21 , I see its growth listed as -47.2

Looking up N#Cc1c2c(nn(-c3ccccc3)c1=O)C(O)=C([N+](=O)[O-])C(c1ccccc1)C2 (configuration not stated) , I see its growth listed as 89

Looking up CCc1ccccc1-n1c(-c2ccc(Cl)cc2)cc(-c2ccc(OC)cc2)c(C#N)c1=O , I see its growth listed as 91.5
